# Tested on: CMS
# Design: species or system AML cell lines (8); Primary HTS, single concentration about 10 uM, Cell Titer Glo viability; log10 luminescence, per cent inhibition relative to cycloheximide control
# Study Conditions: 72 h, relative to cycloheximide control, log10 luminescence; inhibitor
# CMS %inh >= 3% gives true, anything below gives false

>  <Structure String>
COc1ccc2cc(-c3c(-c4ccncc4)nc(-c4ccc(S(C)(=O)=O)cc4C)n3C)ccc2c1

>  <Class Assignment>
false

$$$$
>  <Structure String>
Cc1cc(-c2ccco2)cc(C)c1/C=C/c1cncc(-c2nn[nH]n2)c1

>  <Class Assignment>
false

$$$$
>  <Structure String>
CCc1ccc(Oc2nccc(-c3c(-c4ccc(F)cc4)ncn3C3CCNCC3)n2)cc1

>  <Class Assignment>
false

$$$$

Problem: Can Cc1ccc2cc3c(ccc4ccccc43)c3c2c1CC3 be said to have CMS %inh at or above 3%?
Solution: true

Problem: Dear colleague, could you confirm whether Clc1ccc(CNc2nccc(-c3cnn4ncccc34)n2)cc1 has CMS %inh at or above 3%?
Solution: true

Problem: Can O=C1NC(=NCc2c(Cl)cccc2Cl)S/C1=C\c1ccc2ncccc2c1 be said to have CMS %inh at or above 3%?
Solution: false

Problem: Decide: CMS %inh of Cc1[nH]n(-c2ccccc2)c(=O)c1C(=O)c1ccccc1 >= 3%?
Solution: false

Problem: Quick check, CMS %inh >= 3%? c1ccc(-c2nc3n(c2-c2ccc4c(c2)OCO4)CCC3)nc1
Solution: true

* * *

Catalogue of compounds with associated EC50
# Tested on: U937
# Assay Name: Secondary dose-response HTS, Cell Titer Glo
# Type: cell-based, human
# Study Conditions: Homo sapiens, U-937; secondary high-throughput screen; U937; read-out: average effective concentration, U937
Answer with a number only, understood to be in nM.

// sample N#CN=C(NCCCCCCOc1ccc(Cl)cc1)Nc1ccncc1 , its EC50 was 5

* * *

# Tested on: CMK
# Set-up: species or system AML cell lines (8); Primary HTS, single concentration about 10 uM, Cell Titer Glo viability; log10 luminescence, per cent inhibition relative to cycloheximide control
# Study Conditions: 72 h, relative to cycloheximide control, log10 luminescence, inhibitor, CMK %inh, 10 µM
Square brackets hold non-standard residues; d marks the D form. Peptide text beside a SMILES is read from it. * marks the point of attachment. Sta = CC(C)C[C@H](N)[C@@H](O)CC(=O)O; Isovaleryl = CC(C)CC(=O)*
Property Label: CMK %inh (%)
Number in %, nothing else.

Solved cases (8 shown):
>  <Compound>
CCCCC(=O)N(Cc1ccc(-c2ccccc2-c2nnn[nH]2)cc1)[C@H](C(=O)O)C(C)C [SJ000286083-3]

>  <Units Label>
%

>  <Test Result>
-2.006

$$$$
>  <Compound>
C[C@H](CS)C(=O)N1CCC[C@H]1C(=O)O [SJ000286908-11, CAPTOPRIL]

>  <Units Label>
%

>  <Test Result>
-6.202

$$$$
>  <Compound>
CN1CCC(C(=O)Nc2n[nH]c3nc(-c4ccc(O)cc4)c(Br)cc23)CC1

>  <Units Label>
%

>  <Test Result>
70.81

$$$$
>  <Compound>
CCCCC(=O)N(Cc1ccc(-c2ccccc2-c2nnn[nH]2)cc1)[C@H](C(=O)O)C(C)C [SJ000286083-4]

>  <Units Label>
%

>  <Test Result>
-2.819

$$$$
>  <Compound>
Nc1ccc(S(=O)(=O)Nc2ccccn2)cc1

>  <Units Label>
%

>  <Test Result>
-1.27

$$$$
>  <Compound>
CCOc1cc(CC(=O)N[C@@H](CC(C)C)c2ccccc2N2CCCCC2)ccc1C(=O)O [SJ000287528-3, REPAGLINIDE]

>  <Units Label>
%

>  <Test Result>
-1.863

$$$$
>  <Compound>
COc1cc2c(cc1O)CC[C@@H]1[C@@H]2CC[C@]2(C)[C@@H](O)CC[C@@H]12

>  <Units Label>
%

>  <Test Result>
118

$$$$
>  <Compound>
CC(C)CC(=O)N[C@H](C(=O)N[C@H](C(=O)N[C@@H](CC(C)C)[C@@H](O)CC(=O)N[C@@H](C)C(=O)N[C@@H](CC(C)C)[C@@H](O)CC(=O)O)C(C)C)C(C)C [SJ000287258-3, PEPSTATIN A] (Isovaleryl-VV[Sta]A[Sta]-OH)

>  <Units Label>
%

>  <Test Result>
-4.878

$$$$

Query CN(CCCCCCCCCCN(C)C(=O)Oc1cccc([N+](C)(C)C)c1)C(=O)Oc1cccc([N+](C)(C)C)c1 [SJ000287334-3, DEMECARIUM BROMIDE] yields CMK %inh of 4.147

Lab note: measured CMK %inh of CC(=O)/N=c1/sc(S(N)(=O)=O)nn1C [SJ000285971-5, METHAZOLAMIDE] was -2.598

Entry O=C(O[C@H]1C[C@H]2CC[C@@H](C1)[N+]21CCCC1)C(O)(c1ccccc1)c1ccccc1 [SJ000556733-1, TROSPIUM CHLORIDE] — recorded CMK %inh = -8.303

CMK %inh measured on COCCOC(=O)C1=C(C)NC(C)=C(C(=O)OC(C)C)C1c1cccc([N+](=O)[O-])c1 (stereo not shown) = 2.191

// CMK %inh value for CC[C@H]1OC(=O)[C@H](C)[C@@H](O[C@H]2C[C@@](C)(OC)[C@@H](O)[C@H](C)O2)[C@H](C)[C@@H](O[C@@H]2O[C@H](C)C[C@H](N(C)C)[C@H]2O)[C@](C)(OC)C[C@@H](C)C(=O)[C@H](C)[C@@H](O)[C@]1(C)O [SJ000286061-4, CLARITHROMYCIN] : -0.3654
